Experiment: binders from COS7 lysate, DM2A8 probe, primary screen, torsin A project, cell lysate, small-molecule microarray, fluorescence 635/667 (AID 1065)
Conditions: higher = more signal, COS7 lysate expressing mutant human TOR1A
Provide the reported composite z-score of each item.
Could you respond with only the numeric value?

For COc1ccc([C@H]2C[C@H]3C(Br)=C[C@@]2(CO)C(=O)[C@]32CO2)cc1 , what is its reported composite z-score? -0.512

Follow-up item: O=C(NC1CC1)[C@@H]1c2ccccc2C(=O)N(Cc2cc(F)cc(C(F)(F)F)c2)[C@H]1c1ccc(CO)cc1 0.195

Follow-up item: COc1ccc([Si](C)(C)[C@@H]2[C@@H](CC(=O)N3Cc4ccccc4C[C@H]3CO)O[C@]3(C(=O)N(Cc4cccc(N5CCC5=O)c4)c4ccccc43)[C@H]2C)cc1 0.3

Follow-up item: CC(C)[Si](C#CCCCC#N)(Oc1ccccc1Br)C(C)C 0.14

Follow-up item: O=C(CS)NCCCCCNC(=O)[C@@H]1C[C@@H]2C(=O)NCC(=O)N2[C@@H]1c1ccc(O)cc1 0.654

Follow-up item: O=C1OCCC=C[C@H]2OC34C=CCN(c5ccc(Cl)cc5)C(=O)[C@H]3N(CCCO)C(=O)[C@@H]4C12 (stereo partly specified) -0.771

Follow-up item: O=C(O)C1N=C(c2ccc(OCCCO)cc2)N(c2ccccc2)O1 (stereo unspecified) 0.0642

Follow-up item: C=C(C(=O)CC[C@H](OC(C)=O)c1ccccc1OCCO)C(C)C -1.03

Follow-up item: COC(=O)c1c(CC[C@@H](CO)NC(=O)N[C@@H](Cc2ccccc2)Cn2cc(-c3ccccn3)nn2)oc(C(=O)N2CCOCC2)c1C(=O)OC -0.451

Follow-up item: COC(=O)[C@@]1(Cc2ccc(F)cc2)[C@H]2c3cc(C(=O)N(C)C)n(Cc4ccc(C)o4)c3C[C@H]2CN1C(=O)c1ccccc1 3.31

Follow-up item: [N-]=[N+]=Nc1ccccc1[C@H]1OC(c2ccc(OCCCO)cc2)=N[C@@]1(Cc1ccccc1)C(=O)N1CCOCC1 0.992

Follow-up item: CCOC(=O)C[C@H]1[C@H](OC(=O)c2ccc(C(=O)c3ccccc3)cc2)[C@@H](NC(=O)Cc2ccc(OC)cc2)c2cc(OCCCO)ccc2N1C(=O)c1ccc2ccccc2n1 0.0267

Follow-up item: COCC(=C=CC[C@@H](O)c1ccc(OCCO)cc1)C[C@@H](O)c1ccccn1 -0.116

Follow-up item: OCCCC1=CC(C2CC2)N(Cc2cccc(OC(F)(F)F)c2)CC1 (stereo unspecified) 0.406

Follow-up item: COC(=O)C(CC#Cc1ccc2c(c1)[C@]1(C(=O)N2)[C@H](c2ccc(O)cc2)N2[C@H](c3ccccc3)[C@H](c3ccccc3)OC(=O)[C@H]2[C@@H]1C(=O)N1CCN(c2ncccn2)CC1)C(=O)OC 0.215

Follow-up item: CCOC(=O)C[C@H]1[C@H](OC(=O)c2ccc(-c3ccccc3)cc2)[C@@H](NC(=O)c2ccccc2)c2cc(OCCCO)ccc2N1C(=O)Cc1ccc(OC)cc1 -0.0212

Follow-up item: COC(=O)C(CC#Cc1ccc2c(c1)[C@]1(C(=O)N2)[C@H](c2ccccc2OCCO)N2[C@H](c3ccccc3)[C@H](c3ccccc3)OC(=O)[C@H]2[C@@H]1C(=O)O)C(=O)OC 0.856

Follow-up item: [N-]=[N+]=Nc1ccccc1[C@H]1OC(c2ccc(OCCCO)cc2)=N[C@@]1(CCS(=O)(=O)c1ccccc1)C(=O)NCc1ccccc1 0.144

Follow-up item: C#CCN(C/C=C/c1ccccc1)[C@H](CO)c1ccccc1 0.484

Follow-up item: Cc1ccc([C@H]2C(C(=O)O)=CCN2S(=O)(=O)c2ccc(C)cc2)cc1 0.0722

Follow-up item: CC[C@@H]1C=C(C(=O)O)[C@H](c2cccc3ccccc23)N1S(=O)(=O)c1ccc(C)cc1 -0.26
